Molecular target: Decaprenylphosphoryl-beta-D-ribose oxidase (Mycobacterium tuberculosis (strain ATCC 25618 / H37Rv))
Sequence (P9WJF1 whole entry): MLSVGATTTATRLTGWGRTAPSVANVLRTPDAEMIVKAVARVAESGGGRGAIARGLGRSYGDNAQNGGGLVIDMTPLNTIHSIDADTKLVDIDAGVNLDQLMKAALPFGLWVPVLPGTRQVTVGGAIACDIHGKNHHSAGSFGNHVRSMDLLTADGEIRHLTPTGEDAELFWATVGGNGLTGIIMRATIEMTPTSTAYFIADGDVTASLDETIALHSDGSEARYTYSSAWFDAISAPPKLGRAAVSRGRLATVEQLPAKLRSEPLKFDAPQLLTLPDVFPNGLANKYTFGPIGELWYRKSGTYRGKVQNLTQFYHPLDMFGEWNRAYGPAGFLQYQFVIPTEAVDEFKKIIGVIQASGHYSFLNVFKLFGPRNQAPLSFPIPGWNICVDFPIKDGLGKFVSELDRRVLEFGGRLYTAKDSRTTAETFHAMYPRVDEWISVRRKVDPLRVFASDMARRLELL
Experiment: Inhibition of Mycobacterium tuberculosis DprE1 expressed in Escherichia coli BL21 (DE3) cells assessed as formation of resorufin using FPR as substrate by Amplex Red hydrogen/peroxidase coupled assay
Give measured IC50 for each item. Keep answers brief.
Give bare numbers, in µM.

[[record]]
compound = "COC(=O)CCc1cc(C(F)(F)F)cc2c(=O)nc(N3CCN(CC4CCCCC4)CC3)sc12"
recorded_metric = "IC50"
unit_of_measurement = "µM"
obs_value = 5.4

[[record]]
compound = "COC(=O)C#Cc1cc(C(F)(F)F)cc2c(=O)nc(N3CCN(CC4CCCCC4)CC3)sc12"
recorded_metric = "IC50"
unit_of_measurement = "µM"
obs_value = 0.14

[[record]]
compound = "O=c1nc(N2CCN(CC3CCCCC3)CC2)sc2c(Cl)cc(C(F)(F)F)cc12"
recorded_metric = "IC50"
unit_of_measurement = "µM"
obs_value = 0.92


# map each compound to its IC50
1. NC(=O)CCc1cc(C(F)(F)F)cc2c(=O)nc(N3CCN(CC4CCCCC4)CC3)sc12
2. CNC(=O)/C=C/c1cc(C(F)(F)F)cc2c(=O)nc(N3CCN(CC4CCCCC4)CC3)sc12
3. N#CCCc1cc(C(F)(F)F)cc2c(=O)nc(N3CCN(CC4CCCCC4)CC3)sc12
4. NC(=O)/C=C/c1cc(C(F)(F)F)cc2c(=O)nc(N3CCN(CC4CCCCC4)CC3)sc12
5. CN(C)C(=O)/C=C/c1cc(C(F)(F)F)cc2c(=O)nc(N3CCN(CC4CCCCC4)CC3)sc12

output:
[16.7, 0.39, 13.2, 0.2, 1.25]
